# target: T1, Claudin 18.2 (CLDN18.2), expressed on CHOS-CLDN 18.2 / HEK293-CLDN 18.2 / HCC827-CLDN 18.2 cells (human, UniProt P56856-2 1-261)
# T1 construct: whole, on cells; The species is not repeated for the CHOS-CLDN 18.2 cells; also called claudin-18A2
# test details: FACS, MFI on CHOS-CLDN18.2 over MFI on CHOS-CLDN18.1, 10 µg/ml
Listing of recorded CLDN18.2/CLDN18.1 (MFI ratio) by entry.
Respond numerically, and do not add a unit to the figure.

**Query** Record request: CLDN18.2/CLDN18.1 (MFI ratio) value, item QP199200 (antibody, human IgG1, V domains shown, Chimeric; also called 43C11; mouse-derived chimeric antibody QP199200) VH: DVQLVESGGGLVQPGGSRKLSCAASGFTFSSFGMHWVRQAPEKGLEWVAYISSGSNSIYYVDTVKGRFTISRDNPKNTLFLQMTSLKSEDTAMYYCARNAYYGNSFDYWGQGTTLTVSS VL: DIVMTQSPSSLTVTAGEKVTMSCKSSQSLLNSGNQKNYLTWYQQKPGQPPKLLIYWASTRESGVPDRFTGSGSGTVFTLTISSVQAEDLAVYFCQNNYYYPLTFGAGTKLELK
**Result** 560

**Query** Please report the recorded CLDN18.2/CLDN18.1 (MFI ratio) for QP190191 (antibody, human IgG1, V domains shown, Chimeric; also called 36A2; mouse-derived chimeric antibody QP190191) VH: EVKLVESGGGLVKPGGSLKLSCAASGFTFSNYAMSWVRQTPEKRLEWVASIISGGRTYYLDSEKGRFTISRDNARNNLYLQMSSLRSEDTAMYYCTRIYYGNSFDYWGQGTTLTVSS VL: DIVMTQSPSSQTVTAGEKVTMSCKSSQSLLNSGNQKNYLTWYQQKPGQPPKLLIYWASTRESGVPDRFTGSGSGTDFTLTISNMQAEDLAVYYCQNDYSYPFTFGSGTKLEIK .
**Result** 423

**Query** What measured CLDN18.2/CLDN18.1 (MFI ratio) goes with QP14581453 (antibody, human IgG1, kappa, V domains shown, Humanized from QP201202) VH: QVQLVQSGAEVKKPGASVKVSCKASGYTFTNYFVHWVKQAPGQGLEWIGYINPYNDDTKYNEKFKGKATLTRDTSTSTVYMELSSLRSEDTAVYYCLSLRFFAYWGQGTLVTVSS VL: DIVMTQSPDSLAVSLGERATISCKSSQSLLNSGNQKNYLTWYQQKPGQAPKLLIYWASTRESGVPDRFSGSGSGTDFTLTISSLQAEDVAVYYCQNDYSYPLTFGGGTKVEIKR ?
**Result** 581
